# experimental target: SMARCA4 (Homo sapiens)
# Construct: SMARCA4-HiBiT knock-in Hela monoclonal cell (CS3023226) were purchased from Promega; host or cells: HeLa SMARCA4-HiBiT knock-in monoclonal cells (heterozygous knock-in)
# protocol notes: SMARCA4 HiBiT degradation assay in HeLa cells
# Type: cell-based
# condition details: 18 hours incubation
Can you tell me DC50 for the items I'm about to list?

For each of the items listed, what is its DC50?
1. CCC1CN(C(=O)N2CCN(CC3CCN(c4ccc5c(c4)C(=O)N([C@H]4CCC(=O)NC4=O)C5)CC3)CC2(C)C)CCc2c1[nH]c1nnc(-c3cccc(F)c3O)cc21 (stereo partly shown) [Example 5]
2. CC1(C)CN(CC2CCN(c3ccc4c(c3)C(=O)N([C@H]3CCC(=O)NC3=O)C4)CC2)CCN1C(=O)N1CC2CCC1Cc1c2[nH]c2nnc(-c3cccc(F)c3O)cc12 (stereo partly shown) [Example 7]
3. CC1(C)CN(CC2CCN(c3ccc4c(c3)C(=O)N([C@H]3CCC(=O)NC3=O)C4)CC2)CCN1C(=O)N1CCc2[nH]c3nnc(-c4ccccc4O)cc3c2CC1 [Example 1]
4. O=C1CC[C@H](N2Cc3ccc(N4CCC(CN5CCN(C(=O)N6CCc7[nH]c8nnc(-c9ccccc9O)cc8c7CC6)CC5)CC4)cc3C2=O)C(=O)N1 [Example 3]

Out:
1. > 1000 nM
2. 100 to 1000 nM
3. < 100 nM
4. < 100 nM

---

# experimental target: SMARCA4 (Homo sapiens, UniProt P51532)
# Construct: SMARCA4-HiBiT knock-in Hela monoclonal cell (CS3023226) were purchased from Promega; host or cells: HeLa SMARCA4-HiBiT knock-in monoclonal cells (heterozygous knock-in)
# Sequence (P51532 whole entry): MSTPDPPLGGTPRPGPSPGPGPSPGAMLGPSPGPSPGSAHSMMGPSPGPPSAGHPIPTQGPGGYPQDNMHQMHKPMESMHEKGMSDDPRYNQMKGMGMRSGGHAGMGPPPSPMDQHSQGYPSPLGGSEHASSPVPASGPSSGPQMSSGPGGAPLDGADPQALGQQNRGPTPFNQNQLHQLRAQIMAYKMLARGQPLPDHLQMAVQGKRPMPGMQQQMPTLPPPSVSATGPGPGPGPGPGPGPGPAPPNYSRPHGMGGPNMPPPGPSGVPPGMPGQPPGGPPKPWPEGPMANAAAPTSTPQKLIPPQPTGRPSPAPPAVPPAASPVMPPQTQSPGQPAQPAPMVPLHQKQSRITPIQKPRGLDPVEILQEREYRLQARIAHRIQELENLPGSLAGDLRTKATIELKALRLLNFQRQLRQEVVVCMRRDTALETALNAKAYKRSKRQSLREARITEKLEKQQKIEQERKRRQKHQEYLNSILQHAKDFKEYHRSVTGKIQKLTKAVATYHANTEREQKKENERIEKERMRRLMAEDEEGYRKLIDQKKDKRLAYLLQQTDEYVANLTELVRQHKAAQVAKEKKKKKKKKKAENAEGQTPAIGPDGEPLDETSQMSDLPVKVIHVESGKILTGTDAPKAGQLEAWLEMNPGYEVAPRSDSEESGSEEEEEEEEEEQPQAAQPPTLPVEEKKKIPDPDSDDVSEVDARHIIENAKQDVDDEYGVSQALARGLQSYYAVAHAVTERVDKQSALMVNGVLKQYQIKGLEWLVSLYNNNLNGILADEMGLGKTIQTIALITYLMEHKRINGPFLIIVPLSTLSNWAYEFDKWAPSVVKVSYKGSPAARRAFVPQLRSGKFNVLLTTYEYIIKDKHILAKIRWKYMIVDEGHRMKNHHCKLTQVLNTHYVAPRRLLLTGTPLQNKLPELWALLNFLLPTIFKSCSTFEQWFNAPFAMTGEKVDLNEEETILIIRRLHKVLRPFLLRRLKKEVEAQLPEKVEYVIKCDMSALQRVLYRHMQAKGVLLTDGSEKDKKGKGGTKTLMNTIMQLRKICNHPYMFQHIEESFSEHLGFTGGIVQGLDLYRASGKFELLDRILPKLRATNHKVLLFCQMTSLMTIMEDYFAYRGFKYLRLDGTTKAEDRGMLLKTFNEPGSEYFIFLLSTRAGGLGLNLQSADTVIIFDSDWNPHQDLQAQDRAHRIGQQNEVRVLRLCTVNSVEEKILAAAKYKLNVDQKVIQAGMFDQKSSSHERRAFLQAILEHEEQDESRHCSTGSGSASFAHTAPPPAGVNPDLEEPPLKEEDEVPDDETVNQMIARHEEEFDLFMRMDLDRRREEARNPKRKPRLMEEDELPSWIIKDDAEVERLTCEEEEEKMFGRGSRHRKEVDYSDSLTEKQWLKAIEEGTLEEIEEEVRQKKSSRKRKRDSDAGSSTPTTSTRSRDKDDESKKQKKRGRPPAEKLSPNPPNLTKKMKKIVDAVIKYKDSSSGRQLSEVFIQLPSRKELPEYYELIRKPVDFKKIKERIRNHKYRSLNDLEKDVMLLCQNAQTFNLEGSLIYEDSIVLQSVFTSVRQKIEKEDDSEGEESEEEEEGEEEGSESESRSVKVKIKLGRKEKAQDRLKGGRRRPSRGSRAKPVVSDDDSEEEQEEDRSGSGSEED
# protocol notes: SMARCA4 HiBiT degradation assay in HeLa cells
# Assay type: cell-based
# condition details: 18 hours incubation
# Protocol: Example A. SMARCA2 HiBiT and SMARCA4 HiBiT Degradation Assay Preparation of SMARCA2/4-HiBiT Knock-In Cells HiBiT peptide knock-in of SMARCA2 in LgBiT expressing HEK293T cells was performed by CRISPR-mediated tagging system as described Promega. The homozygous HiBiT knock-in on c-terminus SMARCA2 was confirmed by sanger sequence. SMARCA2-HiBiT knock-in Hela monoclonal cell (CS302366) and SMARCA4-HiBiT knock-in Hela monoclonal cell (CS3023226) were purchased from Promega. […]
measured quantity: Dmax

In: Which Dmax value belongs to CC1(C)CN(CC2CCN(c3ccc4c(c3)C(=O)N([C@H]3CCC(=O)NC3=O)C4)CC2)CCN1C(=O)N1C2CCC1Cc1c([nH]c3nnc(-c4cccc(F)c4O)cc13)C2 (stereo partly shown) ?
Out: 50 to 75%

For each of the items listed, what is its Dmax?
1. CC1(C)CN(CC2CCN(c3ccc4c(c3)C(=O)N([C@H]3CCC(=O)NC3=O)C4)CC2)CCN1C(=O)N1CCc2[nH]c3nnc(-c4ccccc4O)cc3c2CC1
2. CC1(C)CN(CC2CCN(c3ccc4c(c3)C(=O)N([C@H]3CCC(=O)NC3=O)C4)CC2)CCN1C(=O)N1CC2CCC1Cc1c2[nH]c2nnc(-c3cccc(F)c3O)cc12 (stereo partly shown)
3. C[C@@H]1CN(CC2CCN(c3ccc4c(c3)C(=O)N([C@H]3CCC(=O)NC3=O)C4)CC2)C[C@H](C)N1C(=O)N1CCc2[nH]c3nnc(-c4ccccc4O)cc3c2CC1

Out:
1. > 75%
2. < 50%
3. > 75%

For each of the items listed, what is its Dmax?
1. CCC1CN(C(=O)N2CCN(CC3CCN(c4ccc5c(c4)C(=O)N([C@H]4CCC(=O)NC4=O)C5)CC3)CC2(C)C)CCc2c1[nH]c1nnc(-c3cccc(F)c3O)cc21 (stereo partly shown)
2. CC1(C)CN(CC2CCN(c3ccc4c(c3)C(=O)N([C@H]3CCC(=O)NC3=O)C4)CC2)CCN1C(=O)N1CCc2[nH]c3nnc(-c4cccc(F)c4O)cc3c2CC1
3. O=C1CC[C@H](N2Cc3ccc(N4CCC(CN5CCN(C(=O)N6CCc7[nH]c8nnc(-c9ccccc9O)cc8c7CC6)CC5)CC4)cc3C2=O)C(=O)N1

Out:
1: < 50%; 2: < 50%; 3: > 75%

---

# experimental target: SMARCA4 (Homo sapiens)
# Construct: SMARCA4-HiBiT knock-in Hela monoclonal cell (CS3023226) were purchased from Promega; host or cells: HeLa SMARCA4-HiBiT knock-in monoclonal cells (heterozygous knock-in)
# protocol notes: SMARCA4 HiBiT degradation assay in HeLa cells
# Type: cell-based
# condition details: 18 hours incubation
measured quantity: DC50

In: Which DC50 value belongs to "C[C@@H]1CN(CC2CCN(c3ccc4c(c3)C(=O)N([C@H]3CCC(=O)NC3=O)C4)CC2)C[C@H](C)N1C(=O)N1CCc2[nH]c3nnc(-c4ccccc4O)cc3c2CC1" ?
Out: < 100 nM

In: Which DC50 value belongs to CC1(C)CN(CC2CCN(c3ccc4c(c3)C(=O)N([C@H]3CCC(=O)NC3=O)C4)CC2)CCN1C(=O)N1C2CCC1Cc1c([nH]c3nnc(-c4cccc(F)c4O)cc13)C2 (stereo partly drawn) ?
Out: 100 to 1000 nM

***
In: Which DC50 value belongs to "CC1(C)CN(CC2CCN(c3ccc4c(c3)C(=O)N([C@H]3CCC(=O)NC3=O)C4)CC2)CCN1C(=O)N1CCc2[nH]c3nnc(-c4cccc(F)c4O)cc3c2CC1" ?
Out: > 1000 nM

---

Can you tell me Dmax for the items I'm about to list?
# experimental target: SMARCA2 (Homo sapiens, UniProt P51531)
# Construct: SMARCA2-HiBiT knock-in Hela monoclonal cell (CS302366); host or cells: HeLa SMARCA2-HiBiT knock-in monoclonal cells (heterozygous knock-in)
# Sequence (P51531 whole entry): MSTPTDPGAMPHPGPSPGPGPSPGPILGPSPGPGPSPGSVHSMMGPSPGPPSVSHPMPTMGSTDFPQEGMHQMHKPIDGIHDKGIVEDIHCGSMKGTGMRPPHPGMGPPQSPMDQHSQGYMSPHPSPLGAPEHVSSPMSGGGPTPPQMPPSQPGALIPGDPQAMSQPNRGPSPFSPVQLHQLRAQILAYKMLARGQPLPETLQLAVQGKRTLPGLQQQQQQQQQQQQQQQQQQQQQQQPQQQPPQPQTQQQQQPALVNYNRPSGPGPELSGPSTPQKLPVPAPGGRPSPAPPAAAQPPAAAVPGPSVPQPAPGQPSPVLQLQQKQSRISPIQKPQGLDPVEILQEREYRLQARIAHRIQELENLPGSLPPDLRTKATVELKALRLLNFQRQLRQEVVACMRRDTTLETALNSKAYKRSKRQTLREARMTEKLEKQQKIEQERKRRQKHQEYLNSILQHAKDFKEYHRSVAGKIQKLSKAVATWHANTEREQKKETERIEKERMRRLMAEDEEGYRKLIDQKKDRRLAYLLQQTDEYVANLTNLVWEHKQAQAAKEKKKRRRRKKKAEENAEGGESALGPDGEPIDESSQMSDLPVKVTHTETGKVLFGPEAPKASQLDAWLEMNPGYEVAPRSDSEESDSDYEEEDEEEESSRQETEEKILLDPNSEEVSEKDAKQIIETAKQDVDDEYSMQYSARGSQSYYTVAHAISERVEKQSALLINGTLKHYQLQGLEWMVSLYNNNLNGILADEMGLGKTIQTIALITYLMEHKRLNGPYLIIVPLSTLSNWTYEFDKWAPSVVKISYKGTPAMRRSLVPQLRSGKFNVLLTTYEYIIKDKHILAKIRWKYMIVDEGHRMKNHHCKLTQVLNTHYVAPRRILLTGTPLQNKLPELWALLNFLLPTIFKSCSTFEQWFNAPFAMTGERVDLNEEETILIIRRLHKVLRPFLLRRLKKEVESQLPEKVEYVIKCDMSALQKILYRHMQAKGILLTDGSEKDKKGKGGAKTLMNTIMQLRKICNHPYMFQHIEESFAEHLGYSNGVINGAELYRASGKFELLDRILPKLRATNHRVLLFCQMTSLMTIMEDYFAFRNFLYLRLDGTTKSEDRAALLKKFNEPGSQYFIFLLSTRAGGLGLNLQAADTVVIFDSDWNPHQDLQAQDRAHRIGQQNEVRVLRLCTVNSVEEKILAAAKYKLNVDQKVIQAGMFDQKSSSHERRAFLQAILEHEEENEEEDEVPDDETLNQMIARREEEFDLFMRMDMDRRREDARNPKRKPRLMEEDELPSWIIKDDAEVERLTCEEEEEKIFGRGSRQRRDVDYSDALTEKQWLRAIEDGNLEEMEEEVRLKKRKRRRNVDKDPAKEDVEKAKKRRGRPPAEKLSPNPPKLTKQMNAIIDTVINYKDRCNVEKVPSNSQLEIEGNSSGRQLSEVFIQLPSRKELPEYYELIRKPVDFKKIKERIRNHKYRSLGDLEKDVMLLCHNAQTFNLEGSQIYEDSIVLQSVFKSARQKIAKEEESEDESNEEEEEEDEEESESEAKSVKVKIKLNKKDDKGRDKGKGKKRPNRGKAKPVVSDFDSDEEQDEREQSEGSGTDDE
# protocol notes: SMARCA2 HiBiT degradation assay in HeLa cells
# Type: cell-based
# condition details: 18 hours incubation
# Method: Example A. SMARCA2 HiBiT and SMARCA4 HiBiT Degradation Assay Preparation of SMARCA2/4-HiBiT Knock-In Cells HiBiT peptide knock-in of SMARCA2 in LgBiT expressing HEK293T cells was performed by CRISPR-mediated tagging system as described Promega. The homozygous HiBiT knock-in on c-terminus SMARCA2 was confirmed by sanger sequence. SMARCA2-HiBiT knock-in Hela monoclonal cell (CS302366) and SMARCA4-HiBiT knock-in Hela monoclonal cell (CS3023226) were purchased from Promega. […]

Here is how some compounds turned out for Dmax.
In: Which Dmax value belongs to CC1(C)CN(CC2CCN(c3ccc4c(c3)C(=O)N([C@H]3CCC(=O)NC3=O)C4)CC2)CCN1C(=O)N1CCc2[nH]c3nnc(-c4ccccc4O)cc3c2CC1 [Example 1] ?
Out: > 75%

In: Which Dmax value belongs to CC1(C)CN(CC2CCN(c3ccc4c(c3)C(=O)N([C@H]3CCC(=O)NC3=O)C4)CC2)CCN1C(=O)N1C2CCC1Cc1c([nH]c3nnc(-c4cccc(F)c4O)cc13)C2 (stereo partly shown) [Example 6] ?
Out: > 75%

In: Which Dmax value belongs to CC1(C)CN(CC2CCN(c3ccc4c(c3)C(=O)N([C@H]3CCC(=O)NC3=O)C4)CC2)CCN1C(=O)N1CC2CCC1Cc1c2[nH]c2nnc(-c3cccc(F)c3O)cc12 (stereo partly shown) [Example 7] ?
Out: < 50%

For each of the items listed, what is its Dmax?
1. O=C1CC[C@H](N2Cc3ccc(N4CCC(CN5CCN(C(=O)N6CCc7[nH]c8nnc(-c9ccccc9O)cc8c7CC6)CC5)CC4)cc3C2=O)C(=O)N1 [Example 3]
2. CC1(C)CN(CC2CCN(c3ccc4c(c3)C(=O)N([C@H]3CCC(=O)NC3=O)C4)CC2)CCN1C(=O)N1CCc2[nH]c3nnc(-c4cccc(F)c4O)cc3c2CC1 [Example 4]
3. CCC1CN(C(=O)N2CCN(CC3CCN(c4ccc5c(c4)C(=O)N([C@H]4CCC(=O)NC4=O)C5)CC3)CC2(C)C)CCc2c1[nH]c1nnc(-c3cccc(F)c3O)cc21 (stereo partly shown) [Example 5]
4. C[C@@H]1CN(CC2CCN(c3ccc4c(c3)C(=O)N([C@H]3CCC(=O)NC3=O)C4)CC2)C[C@H](C)N1C(=O)N1CCc2[nH]c3nnc(-c4ccccc4O)cc3c2CC1 [Example 2]

Out:
["> 75%", "50 to 75%", "50 to 75%", "> 75%"]

---

# experimental target: SMARCA2 (Homo sapiens)
# Construct: SMARCA2-HiBiT knock-in Hela monoclonal cell (CS302366); host or cells: HeLa SMARCA2-HiBiT knock-in monoclonal cells (heterozygous knock-in)
# protocol notes: SMARCA2 HiBiT degradation assay in HeLa cells
# Type: cell-based
# condition details: 18 hours incubation
measured quantity: DC50

Here is how some compounds turned out for DC50.
In: Which DC50 value belongs to CCC1CN(C(=O)N2CCN(CC3CCN(c4ccc5c(c4)C(=O)N([C@H]4CCC(=O)NC4=O)C5)CC3)CC2(C)C)CCc2c1[nH]c1nnc(-c3cccc(F)c3O)cc21 (stereo partly shown) [Example 5] ?
Out: 100 to 1000 nM

In: Which DC50 value belongs to CC1(C)CN(CC2CCN(c3ccc4c(c3)C(=O)N([C@H]3CCC(=O)NC3=O)C4)CC2)CCN1C(=O)N1CCc2[nH]c3nnc(-c4ccccc4O)cc3c2CC1 [Example 1] ?
Out: < 100 nM

In: Which DC50 value belongs to C[C@@H]1CN(CC2CCN(c3ccc4c(c3)C(=O)N([C@H]3CCC(=O)NC3=O)C4)CC2)C[C@H](C)N1C(=O)N1CCc2[nH]c3nnc(-c4ccccc4O)cc3c2CC1 [Example 2] ?
Out: < 100 nM

In: Which DC50 value belongs to CC1(C)CN(CC2CCN(c3ccc4c(c3)C(=O)N([C@H]3CCC(=O)NC3=O)C4)CC2)CCN1C(=O)N1CCc2[nH]c3nnc(-c4cccc(F)c4O)cc3c2CC1 [Example 4] ?
Out: < 100 nM

In: Which DC50 value belongs to CC1(C)CN(CC2CCN(c3ccc4c(c3)C(=O)N([C@H]3CCC(=O)NC3=O)C4)CC2)CCN1C(=O)N1CC2CCC1Cc1c2[nH]c2nnc(-c3cccc(F)c3O)cc12 (stereo partly shown) [Example 7] ?
Out: 100 to 1000 nM

For each of the items listed, what is its DC50?
1. CC1(C)CN(CC2CCN(c3ccc4c(c3)C(=O)N([C@H]3CCC(=O)NC3=O)C4)CC2)CCN1C(=O)N1C2CCC1Cc1c([nH]c3nnc(-c4cccc(F)c4O)cc13)C2 (stereo partly shown) [Example 6]
2. O=C1CC[C@H](N2Cc3ccc(N4CCC(CN5CCN(C(=O)N6CCc7[nH]c8nnc(-c9ccccc9O)cc8c7CC6)CC5)CC4)cc3C2=O)C(=O)N1 [Example 3]

Out:
1: < 100 nM; 2: < 100 nM
